Reference source: ChEMBL document CHEMBL4261500

# System: A549
# test: Cytotoxicity against human A549 cells assessed as decrease in cell viability after 48 hrs by MTT assay
# Assay type: functional, cell-based
# condition set: A549, 48 h

- chemical smiles: "COC1=C(OC)[C@H](O)[C@H](C/C=C(\\C)CC/C=C(\\C)CCC=C(C)C)[C@@H](C)C1=O"
  IC50: "3.24 µM"
